Recorded Ratio (-BP/+BP), DF-10000, one value per entry.
Biological target: T1, interleukin 18 binding protein (IL-18BP) (UniProt O95998 31-194)
T1 sequence (looked up): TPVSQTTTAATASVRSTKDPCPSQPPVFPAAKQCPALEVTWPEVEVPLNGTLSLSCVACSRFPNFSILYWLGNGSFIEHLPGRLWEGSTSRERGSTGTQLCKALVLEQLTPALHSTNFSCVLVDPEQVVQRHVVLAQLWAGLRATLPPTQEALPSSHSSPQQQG
Experiment: cell-based or functional assay
Just the number, please.

IL-18 variant K53V, S55Q (ligand) YFGKLESKLSVIRNLNDQVLFIDQGNRPLFEDMTDSDMRDNAPRTIFIISMYVDQQPRGMAVTISVKSEKISTLSSENKIISFKEMNPPDNIKDTKSDIIFFQRSVPGHDNKMQFESSSYEGYFLASEKERDLFKLILKKEDELGDRSIMFTVQNED; 1

Now turn to the next binder.
Problem: Find the recorded Ratio (-BP/+BP), DF-10000 belonging to IL-18 variant K53H, S55Y, Q56H (ligand) YFGKLESKLSVIRNLNDQVLFIDQGNRPLFEDMTDSDMRDNAPRTIFIISMYHDYHPRGMAVTISVKSEKISTLSSENKIISFKEMNPPDNIKDTKSDIIFFQRSVPGHDNKMQFESSSYEGYFLASEKERDLFKLILKKEDELGDRSIMFTVQNED and report it.
Solution: 1.05
